Test system: Plasmodium berghei
assayInfo: Screen against P. berghei liver stage (PbLuc), transformed with Luciferase, at 10uM
Type: functional, HepG2
runParameters: tested at 10 uM
Hit rate of the full screen: of about 69,000 compounds, about 8,600 (12%) showed an effect of 50% or more. For the sample, strong results were picked, then their nearest neighbours and some compounds at random.
measuredProperty: INHIBITION (%)
State just the number; it will be interpreted in %.

input: Using the record for O=C([C@H]1C[C@H]2OCC[C@H]2N(Cc2cccnc2)C1)N1CCCO1 , report its INHIBITION.
output: 38.1

input: Using the record for Cc1cc(F)ccc1-n1cc(O)c(C(=O)NCC[S+](C)[O-])n1 (configuration not stated) , report its INHIBITION.
output: 36.2

input: Using the record for Cc1ccc(C(=O)NCc2ccnc(N3CCN(C)CC3)c2)cn1 , report its INHIBITION.
output: 38.9

More entries:
input: Using the record for Cc1nnc(CN(C)C2CCCN(Cc3noc(C4CC4)n3)C2)o1 (configuration not stated) , report its INHIBITION.
output: 27.8

input: Using the record for COc1cccc(COCC(=O)N2CCCC(c3ccn[nH]3)C2)c1 (configuration not stated) , report its INHIBITION.
output: 45.7

input: Using the record for O=C1COc2c(cccc2C(=O)N2CCCC(n3cccn3)C2)N1 (configuration not stated) , report its INHIBITION.
output: -4.94

input: Using the record for Cc1nc2cc(OCc3nc(C(=O)NC(CO)CO)co3)ccc2s1 , report its INHIBITION.
output: 29.4

----------
Tested on: Plasmodium berghei
assayInfo: Screen against P. berghei liver stage (PbLuc), transformed with Luciferase, at 10uM
Assay type: functional, HepG2
runParameters: tested at 10 uM
Out of some 69,000 compounds screened, about 8,600 (12%) showed an effect of 50% or more. The list comes from a sample in which strong results are over-represented; it also holds close analogues and randomly drawn compounds.
Param threshold (30%) applies to INHIBITION; output yes (1) when value >= threshold, no (0) when value < threshold.

Here's what some known entries look like.
input: Test whether the compound COc1ccc(C)cc1NC(=O)Nc1cnc(N2CCOCC2)nc1 records INHIBITION of 30% or higher.
output: yes (1)

input: Test whether the compound Cc1ccnc(NCCNC(=O)CCNC(=O)c2ccccc2F)c1 records INHIBITION of 30% or higher.
output: yes (1)

input: Test whether the compound CN(CCc1cccc2ccccc12)Cc1nc(N)nc(N(C)C)n1 records INHIBITION of 30% or higher.
output: yes (1)

input: Test whether the compound CC(C)N1CC[C@H]2[C@H](C[C@@H](Cn3cccn3)N2c2nccs2)C1 records INHIBITION of 30% or higher.
output: yes (1)

input: Test whether the compound Cc1noc(C)c1C1CCCN1C(=O)CN1C(=O)OC(C)(C)C1=O (stereo not drawn) records INHIBITION of 30% or higher.
output: yes (1)

input: Test whether the compound CC(c1nnc(-c2ccccc2)o1)N1CCC(Nc2ccccc2)CC1 (stereo not drawn) records INHIBITION of 30% or higher.
output: yes (1)

More entries:
input: Test whether the compound Cc1cccc(N2CCN(C(=O)NC(C)c3nncn3C)CC2)c1 (stereo not drawn) records INHIBITION of 30% or higher.
output: no (0)

input: Test whether the compound CCNC(=O)[C@@H]1C[C@@H](NC(=O)c2ccsc2)CN1CCCSC records INHIBITION of 30% or higher.
output: no (0)

----------
Below is a list of entries, each paired with its recorded INHIBITION value.
Tested on: Plasmodium berghei
assayInfo: Screen against P. berghei liver stage (PbLuc), transformed with Luciferase, at 10uM
Format: functional, HepG2
runParameters: tested at 10 uM
Out of some 69,000 compounds screened, about 8,600 (12%) showed an effect of 50% or more. Shown is part of a subset that was picked to be rich in strong results.
State just the number; it will be interpreted in %.

Some compounds with known INHIBITION results, for comparison:
input: Using the record for c1cnc(CC2CCN(c3cnccn3)CC2)cn1 , report its INHIBITION.
output: 33.2

input: Using the record for Cc1noc([C@H]2CC[C@@H]3[C@@H](CCN3S(C)(=O)=O)O2)n1 , report its INHIBITION.
output: 7.12

input: Using the record for Cc1noc([C@@H]2CC[C@@H]3[C@@H](CCN3S(C)(=O)=O)O2)n1 , report its INHIBITION.
output: -10.3

More entries:
input: Using the record for COc1cccc2ccc(CN3CCN(c4ccncc4)CC3)nc12 , report its INHIBITION.
output: 25.3

input: Using the record for CCS(=O)(=O)N(C)c1ccc(C(=O)N2CCCC(C)C2)cc1 (stereo not drawn) , report its INHIBITION.
output: 60.1

----------
System: Plasmodium berghei
assayInfo: Screen against P. berghei liver stage (PbLuc), transformed with Luciferase, at 10uM
Type: functional, HepG2
runParameters: tested at 10 uM
Screen size: about 69,000 compounds; about 8,600 (12%) showed an effect of 50% or more. The full list was thinned out, with strong results kept by preference.
Param threshold (40%) applies to INHIBITION; output y when value >= threshold, n when value < threshold.

Here's what some known entries look like.
input: Test whether the compound c1cnc(N2CCCC3(CCN(CC4CCOC4)CC3)C2)nc1 (stereo unspecified) records INHIBITION of 40% or higher.
output: n

input: Test whether the compound O=C(CCCn1cncn1)NC1(c2ccc(Cl)cc2)CCC1 records INHIBITION of 40% or higher.
output: y

input: Test whether the compound Cc1n[nH]c(C)c1C1CCCN1C(=O)NCC(=O)NC(C)(C)C (stereo unspecified) records INHIBITION of 40% or higher.
output: y

input: Test whether the compound Cc1cc(C)c2cc(CNC(C)C)c3nn(C)c(=O)n3c2c1 records INHIBITION of 40% or higher.
output: y

input: Test whether the compound Cc1cccc(C2(NC(=O)CCN3C(=O)CCC3=O)CCCC2)c1 records INHIBITION of 40% or higher.
output: n

input: Test whether the compound Cc1cnc(N2CCC(c3ccncc3)CC2)nc1-c1ccnn1C records INHIBITION of 40% or higher.
output: y

More entries:
input: Test whether the compound CN(C)C(=O)N1CCC2(CCCN(c3ncccn3)C2)C1 (stereo unspecified) records INHIBITION of 40% or higher.
output: n

input: Test whether the compound Cc1cnc(N2CCN(C)CC2)nc1-c1ccnn1C records INHIBITION of 40% or higher.
output: n

input: Test whether the compound Cc1cnc(N2CC[C@@]3(O)CCCC[C@H]3C2)nc1-c1ccnn1C records INHIBITION of 40% or higher.
output: n

input: Test whether the compound O=C(NCCC(=O)N1CCCc2ccccc21)c1cc(F)cc(F)c1 records INHIBITION of 40% or higher.
output: n

input: Test whether the compound O=C(c1cccnc1)N1CCC2(CC1)CN(c1ccccn1)CCO2 records INHIBITION of 40% or higher.
output: n

----------
System: Plasmodium berghei
assayInfo: Screen against P. berghei liver stage (PbLuc), transformed with Luciferase, at 10uM
Format: functional, HepG2
runParameters: tested at 10 uM
The whole screen tested about 69,000 compounds, of which about 8,600 (12%) showed an effect of 50% or more. The list comes from a sample in which strong results are over-represented; it also holds close analogues and randomly drawn compounds.
Below is a list of entries, each paired with its recorded INHIBITION value.
State just the number; it will be interpreted in %.

input: Missing value: INHIBITION, Plasmodium berghei, entry O=C1CCC[C@]2(CN(S(=O)(=O)N3CCOCC3)C[C@H]2c2cccnc2)N1 . Fill in?
output: 41.5

input: Missing value: INHIBITION, Plasmodium berghei, entry Cc1cnn(CCNCc2cc(C#N)ccc2F)c1 . Fill in?
output: 34.15

input: Missing value: INHIBITION, Plasmodium berghei, entry CC(OCC1CC1)C(=O)Nc1cccc(C(=O)Nc2ccccn2)c1 (stereo not given) . Fill in?
output: 36.5

input: Missing value: INHIBITION, Plasmodium berghei, entry Cc1nc(CN2CCN(C(C)c3nc(C4CC4)no3)CC2)no1 (stereo not given) . Fill in?
output: -21.9

input: Missing value: INHIBITION, Plasmodium berghei, entry COc1ccc(CN(C)C(=O)CN2CC(n3cc(C)cn3)C2)cc1F . Fill in?
output: 17.1

input: Missing value: INHIBITION, Plasmodium berghei, entry Cc1nn(C)c(C)c1CCC(=O)N(C)Cc1ccc2nsnc2c1 . Fill in?
output: -18.3

input: Missing value: INHIBITION, Plasmodium berghei, entry O=C(c1cncc(NCC2COc3ccccc3C2)n1)N1CCOCC1 (stereo not given) . Fill in?
output: 3.13

input: Missing value: INHIBITION, Plasmodium berghei, entry CC(C)C(=O)Nc1cccc(C(=O)Nc2ccccn2)c1 . Fill in?
output: 8.99

input: Missing value: INHIBITION, Plasmodium berghei, entry CCc1noc(C(C)N2CCN(CC)CC2)n1 (stereo not given) . Fill in?
output: -54.6

input: Missing value: INHIBITION, Plasmodium berghei, entry CC(OCC1CC1)C(=O)Nc1cccc(C(=O)Nc2ccncc2)c1 (stereo not given) . Fill in?
output: 82.4

From here, focus on the item given below.
input: Missing value: INHIBITION, Plasmodium berghei, entry CCc1ccc(CN(C)Cc2nc(COc3ccccc3)no2)nc1 . Fill in?
output: 29.6
